Please go through the items and note down their α4β7 cell (Hu) IC50.
Biological target: α4β7 integrin on human cells (human, UniProt P13612 34-1032; P26010 20-798)
Assay: cell-based or functional assay
Bridge positions count the residues as written; N and C are the ends. Square brackets hold non-standard residues; d marks the D form. Primed or numbered codes have the meaning given here. Ends that are not written are not given here. * marks the point of attachment. PEG25′ = Bifunctional PEG linker with 25 polyethylene glycol units; Phe(4-CF3) = N[C@@H](Cc1ccc(C(F)(F)F)cc1)C(=O)O; Phe(4-tBu) = CC(C)(C)c1ccc(C[C@H](N)C(=O)O)cc1; Bip = N[C@@H](Cc1ccc(-c2ccccc2)cc1)C(=O)O; Phe(4-CN) = N#Cc1ccc(C[C@H](N)C(=O)O)cc1; 1Nal = N[C@@H](Cc1cccc2ccccc12)C(=O)O; 2Nal = N[C@@H](Cc1ccc2ccccc2c1)C(=O)O; NMeR = CN[C@@H](CCCNC(=N)N)C(=O)O; Palmitoyl = CCCCCCCCCCCCCCCC(=O)*; Tic = O=C(O)[C@@H]1Cc2ccccc2CN1; β3hE = N[C@@H](CCC(=O)O)CC(=O)O; Pen = CC(C)(S)[C@H](N)C(=O)O; Dap = NC[C@H](N)C(=O)O

Inquiry: Given Ac-[Pen][NMeR]SDTQ[Pen][Phe(4-tBu)][β3hE][dK]-NH2 (disulfide 1-7 (inferred); also: homodimer via IDA) [SEQ ID NO 187] , respond with its α4β7 cell (Hu) IC50.
Reply text: > 100 nM

Inquiry: Given Ac-[Pen][NMeR]SDTL[Pen][2Nal][dF][dK]-NH2 (disulfide 1-7 (inferred); also: homodimer via DIG) [SEQ ID NO 117] , respond with its α4β7 cell (Hu) IC50.
Reply text: > 100 nM

Inquiry: Given Ac-[Pen][NMeR]SDTL[Pen]HY[dK]-NH2 (disulfide 1-7 (inferred); also: homodimer via DIG) [SEQ ID NO 26] , respond with its α4β7 cell (Hu) IC50.
Reply text: > 100 nM

Inquiry: Given Ac-[Pen][NMeR]SDTL[Pen]W[dE][Dap] (disulfide 1-7 (inferred); also: Ac written after C-terminal Dap, place unclear) [SEQ ID NO 63] , respond with its α4β7 cell (Hu) IC50.
Reply text: > 1000 nM

Inquiry: Given [PEG25′]C[NMeR]SDTL[Pen]W-NH2 (disulfide 2-8 (inferred)) [SEQ ID NO 21] , respond with its α4β7 cell (Hu) IC50.
Reply text: > 50 nM

Inquiry: Given Ac-[Pen][NMeR]SDTL[Pen][Phe(4-CN)][β3hE][dK]-NH2 (disulfide 1-7 (inferred); also: homodimer via DIG) [SEQ ID NO 139] , respond with its α4β7 cell (Hu) IC50.
Reply text: ≤ 10 nM

Inquiry: Given Ac-[Pen][NMeR]SDTL[Pen][Bip][β3hE][dK]-NH2 (disulfide 1-7 (inferred); also: homodimer via DIG) [SEQ ID NO 135] , respond with its α4β7 cell (Hu) IC50.
Reply text: ≤ 10 nM

Inquiry: Given Ac-[Pen][NMeR]SDTL[Pen][Phe(3-carbamoyl)][dE][dK]-NH2 (disulfide 1-7 (inferred); also: homodimer linked by DIG) [SEQ ID NO 99] , respond with its α4β7 cell (Hu) IC50.
Reply text: > 100 nM

Inquiry: Given Ac-[Pen][NMeR]SDTL[Pen][Tic][β3hE]-NH2 (disulfide 1-7 (inferred)) [SEQ ID NO 154] , respond with its α4β7 cell (Hu) IC50.
Reply text: > 100 nM

Inquiry: Given Ac-[Pen][NMeR]SDVL[Pen][2Nal][dE]-NH2 (disulfide 1-7 (inferred)) [SEQ ID NO 156] , respond with its α4β7 cell (Hu) IC50.
Reply text: > 100 nM

Inquiry: Given Ac-[dK]C[NMeR]SDTLCW[dK]-NH2 (disulfide 2-8 (inferred); not fully specified; printed as DIG-(Ac-k-C-(N-Me-R)-S-D-T-L-C-W-k-NH2)2-DIG) [SEQ ID NO 5] , respond with its α4β7 cell (Hu) IC50.
Reply text: > 50 nM

Inquiry: Given Palmitoyl-[Pen][NMeR]SDTL[Pen][Phe(4-tBu)][β3hE][dK]-NH2 (disulfide 1-7 (inferred)) [SEQ ID NO 178] , respond with its α4β7 cell (Hu) IC50.
Reply text: > 1000 nM

Inquiry: Given Ac-[Pen][NMeR]SDTL[Pen][dW]E[dK]-NH2 (disulfide 1-7 (inferred); also: homodimer via DIG) [SEQ ID NO 28] , respond with its α4β7 cell (Hu) IC50.
Reply text: > 50 nM

Inquiry: Given Ac-[Pen][NMeR]SDTF[Pen][2Nal][dE]-NH2 (disulfide 1-7 (inferred)) [SEQ ID NO 162] , respond with its α4β7 cell (Hu) IC50.
Reply text: > 1000 nM

Inquiry: Given Ac-[Pen][NMeR]SDTL[Pen][1Nal][dF][dK]-NH2 (disulfide 1-7 (inferred); also: dimer via DIG) [SEQ ID NO 111] , respond with its α4β7 cell (Hu) IC50.
Reply text: > 100 nM

Inquiry: Given Ac-[Pen][NMeR]SDTL[Pen][Phe(4-tBu)][b‑H‑E][dK] (disulfide 1-7 (inferred); not fully specified (residue 10); also: lauroyl (lauroyl chloride) attached after k) [SEQ ID NO 173] , respond with its α4β7 cell (Hu) IC50.
Reply text: > 100 nM

Inquiry: Given Ac-[Pen][NMeR]SDTL[Pen][Phe(4-CF3)][dE][dK]-NH2 (disulfide 1-7 (inferred); also: homodimer via DIG) [SEQ ID NO 122] , respond with its α4β7 cell (Hu) IC50.
Reply text: > 50 nM

Inquiry: Given XRSDTLXWK ((Ac-Pen-(N-Me-R)-S-D-T-L-Pen-W-(N-Me-K)-NH2)2-DIG; disulfide) [SEQ ID NO 77] , respond with its α4β7 cell (Hu) IC50.
Reply text: > 100 nM
